# test: binders from COS7 lysate, DM2A8 probe, primary screen, torsin A project, cell lysate, small-molecule microarray, fluorescence 635/667 (AID 1065)
# condition.details: higher = more signal, COS7 lysate expressing mutant human TOR1A
endpoint.label: composite z-score
# output: bare number, no unit

Please review the entries below; each comes with its answer.
C=C(CCCC)C(=O)CC[C@H](OC(=O)c1cccnc1)c1ccc(CO)o1 : 1.08
COC(=O)[C@@]1(Cc2ccc(OC)cc2)[C@H]2c3cc(C(=O)N4CCCC4)n(CCc4ccc(OC)c(Br)c4)c3C[C@H]2CN1C(=O)c1ccccc1 : -0.116
COC(=O)[C@@]1(Cc2ccccc2)[C@@H]2[C@@H](CC(=O)[C@H]2CC(=O)C(=O)N(C)C)CN1C(=O)c1ccccc1 : -1
CC(C)(C)OC(=O)CC[C@]1(C(N)=O)N=C(c2ccc(OCCCO)cc2)O[C@H]1c1ccccc1CN=[N+]=[N-] : 1.13
O=C1C2C=CC(C(O)c3ccc([N+](=O)[O-])cc3)N(Nc3ccccc3)C2C(=O)N1c1ccccc1 (centres undefined) : 0.0467

Data request: Can you look up the measured composite z-score of C=CCC(OC(C)=O)[C@@H]1[C@@H](N(Cc2ccc(-c3cccc(C(F)(F)F)c3)o2)C(=O)c2cccc3ccccc23)c2cc(OCCCO)ccc2N1C(=O)c1ccc2ccccc2n1 (some centres undefined) for me?
Data returned: 0.584

Data request: Can you look up the measured composite z-score of COc1cc2c(cc1O)C(C1CC1)N(Cc1ccc([N+](=O)[O-])o1)CC2 (centres undefined) for me?
Data returned: -0.242

Data request: Can you look up the measured composite z-score of `COC(=O)[C@@]1(CCS(=O)(=O)c2ccccc2)N=C(c2ccc(OCCCO)cc2)O[C@H]1c1ccccc1N=[N+]=[N-]` for me?
Data returned: 0.35

Data request: Can you look up the measured composite z-score of `O=C1c2ccccc2[C@@]2(Cc3ccccc3N(Cc3ccccc3)C2=O)[C@H](c2ccc(CO)cc2)N1Cc1ccccc1` for me?
Data returned: -0.0642

Data request: Can you look up the measured composite z-score of CCN(CC)c1ccc(N2CC=CC34O[C@@H]5C=CCOC(=O)[C@@H]5[C@H]3C(=O)N(CCO)[C@@H]4C2=O)cc1 (some centres undefined) for me?
Data returned: -0.0324

Data request: Can you look up the measured composite z-score of `CO[C@H]1O[C@H](CO)[C@@H](OC(=O)Nc2ccc(C(F)(F)F)cc2)[C@H](OC(=O)Nc2ccccc2-c2ccccc2)[C@H]1OC(=O)Nc1ccccc1-c1ccccc1` for me?
Data returned: 1.16

Data request: Can you look up the measured composite z-score of `C=CC[C@]1(C(=O)N(C)C)COC(c2ccc(OCCCO)cc2)=N1` for me?
Data returned: 2.23

Data request: Can you look up the measured composite z-score of `C=CCNC(=O)[C@@H]1[C@H]2C(=O)O[C@H](c3ccccc3)[C@H](c3ccccc3)N2[C@H](c2ccc(O)cc2)[C@@]12C(=O)Nc1ccc(C#CC3(O)CCCCCC3)cc12` for me?
Data returned: 0.102

Data request: Can you look up the measured composite z-score of `COCCOC(=O)N1C(=O)[C@@]2(c3cc(C#CC4(O)CCCCCC4)ccc31)[C@H](c1ccc(OCCO)cc1)N1[C@H](c3ccccc3)[C@H](c3ccccc3)OC(=O)[C@H]1[C@@H]2C(N)=O` for me?
Data returned: 0.96
